# PROTOCOL_SUMMARY: Liver Microsome Stability Assay (monkey)
# CONDITION_SUMMARY: monkey liver microsomes, with NADPH, 1.0 uM compound
Liver Microsome Stability (Multiple Species): Monkey - % Remaining after 30 min w/NADPH by entry:
Returns: string containing the numeric result and its unit.

Known results for compounds:
NS(=O)(=O)N1CC(Oc2ccc(N3CCC[C@@H]3c3csc(NC(=O)c4cccn4Cc4ccnc(F)c4)n3)cc2)C1 ... 0.71%
CC(=O)N1CCC(Oc2ccc(N3CCC[C@@H]3c3csc(NC(=O)c4cccn4Cc4ccnc(F)c4)n3)cc2C#N)CC1 ... 0.92%
CC(C)n1cnc(/C=C/c2csc(NC(=O)c3cccn3Cc3cc(F)nc(F)c3)n2)c1 ... 0.07%
O=C(Nc1nc(/C=C/c2cnccn2)cs1)c1cccn1Cc1ccncc1 ... 0.92%
O=C(Nc1nc([C@H]2CCCN2c2ccc(OC3CCS(=O)(=O)CC3)cc2)cs1)c1cccn1Cc1ccnc(F)c1 ... 6.25%
O=C(Nc1nc(/C=C/c2ncoc2C2CCCCC2)cs1)c1cccn1Cc1ccnc(F)c1 ... 1.39%
COc1ccc(O[C@H]2CC[C@@H](c3csc(NC(=O)c4cccn4Cc4ccncc4)n3)CC2)nc1 ... 0.7%
O=C(Nc1nc([C@H]2CCCN2c2ccccc2)cs1)c1cccn1CC1=CCOCC1 ... 3.43%

Dear colleague, I am looking for the recorded Liver Microsome Stability (Multiple Species): Monkey - % Remaining after 30 min w/NADPH of the following compound: COC(=O)Nc1ccc(N2CCC[C@@H]2c2csc(NC(=O)c3cccn3Cc3ccnc(F)c3)n2)nc1
0.22%

// lookup Liver Microsome Stability (Multiple Species): Monkey - % Remaining after 30 min w/NADPH for O=C(Nc1nc([C@H]2CCCN2C2COC2)cs1)c1cccn1Cc1ccncc1
0.09%

Request the reported Liver Microsome Stability (Multiple Species): Monkey - % Remaining after 30 min w/NADPH associated with CC(=O)Nc1ccc(N2CCC[C@@H]2c2csc(NC(=O)c3cccn3Cc3ccnc(F)c3)n2)cc1
11.8%
